Experiment: Extrapolated human dosimetry (OLINDA/EXM, ICRP-89 phantoms)
Details: ICRP 89 Adult Female, extrapolated
Description: To address inter-animal variability, the TIACs for each source organ were calculated from both the mean nTACs and the nTACs obtainend from fitting the mean ± 1 standard deviation (SD) of the normalized time-activity data, providing upper and lower bounds. […] The TIACs, for [177Lu]Lu-DOTAGA.Glu.(FAPI)2 and [177Lu]Lu-DO3A.Glu.(FAPI)2, were determined by time integration of the nTACs. […]
As shown below, each of these compounds has a reported Absorbed dose (AD average) Eyes value.
ENDPOINT_NAME: Absorbed dose (AD average) Eyes (mGy/Mbq)

COMPOUND | OUTPUT_UNIT | ENDPOINT_VALUE
N#C[C@@H]1CC(F)(F)CN1C(=O)CNC(=O)c1ccnc2ccc(OCCCCNC(=O)CC[C@H](NC(=O)CN3CCN(CC(=O)[O-])CCN(CC(=O)[O-])CCN(CC(=O)[O-])CC3)C(=O)NCCCCOc3ccc4nccc(C(=O)NCC(=O)N5CC(F)(F)C[C@H]5C#N)c4c3)cc12.[177Lu+3] [[^177Lu]Lu-DO3A.Glu.(FAPI)2] | mGy/Mbq | 2.63E-02
N#C[C@@H]1CC(F)(F)CN1C(=O)CNC(=O)c1ccnc2ccc(OCCCCNC(=O)CC[C@H](NC(=O)CCC(C(=O)O)N3CCN(CC(=O)[O-])CCN(CC(=O)[O-])CCN(CC(=O)[O-])CC3)C(=O)NCCCCOc3ccc4nccc(C(=O)NCC(=O)N5CC(F)(F)C[C@H]5C#N)c4c3)cc12.[161Tb+3] (stereo partly shown) [[^161Tb]Tb-DOTAGA.Glu.(FAPI)2] | mGy/Mbq | 4.11E-02
N#C[C@@H]1CC(F)(F)CN1C(=O)CNC(=O)c1ccnc2ccc(OCCCCNC(=O)CC[C@H](NC(=O)CN3CCN(CC(=O)[O-])CCN(CC(=O)[O-])CCN(CC(=O)[O-])CC3)C(=O)NCCCCOc3ccc4nccc(C(=O)NCC(=O)N5CC(F)(F)C[C@H]5C#N)c4c3)cc12.[161Tb+3] [[^161Tb]Tb-DO3A.Glu.(FAPI)2] | mGy/Mbq | 3.68E-02
N#C[C@@H]1CC(F)(F)CN1C(=O)CNC(=O)c1ccnc2ccc(OCCCCNC(=O)CC[C@H](NC(=O)CCC(C(=O)O)N3CCN(CC(=O)[O-])CCN(CC(=O)[O-])CCN(CC(=O)[O-])CC3)C(=O)NCCCCOc3ccc4nccc(C(=O)NCC(=O)N5CC(F)(F)C[C@H]5C#N)c4c3)cc12.[177Lu+3] (stereo partly shown) [[^177Lu]Lu-DOTAGA.Glu.(FAPI)2] | mGy/Mbq | 2.94E-02

----------
experiment: Extrapolated human dosimetry (OLINDA/EXM, ICRP-89 phantoms); settings: ICRP 89 Adult Male, extrapolated
As shown below, each of these compounds has a reported Absorbed dose (AD average) Heart Wall value.

COMPOUND | Absorbed dose (AD average) Heart Wall, mGy/Mbq
N#C[C@@H]1CC(F)(F)CN1C(=O)CNC(=O)c1ccnc2ccc(OCCCCNC(=O)CC[C@H](NC(=O)CN3CCN(CC(=O)[O-])CCN(CC(=O)[O-])CCN(CC(=O)[O-])CC3)C(=O)NCCCCOc3ccc4nccc(C(=O)NCC(=O)N5CC(F)(F)C[C@H]5C#N)c4c3)cc12.[161Tb+3] [[^161Tb]Tb-DO3A.Glu.(FAPI)2] | 2.78E-02
N#C[C@@H]1CC(F)(F)CN1C(=O)CNC(=O)c1ccnc2ccc(OCCCCNC(=O)CC[C@H](NC(=O)CN3CCN(CC(=O)[O-])CCN(CC(=O)[O-])CCN(CC(=O)[O-])CC3)C(=O)NCCCCOc3ccc4nccc(C(=O)NCC(=O)N5CC(F)(F)C[C@H]5C#N)c4c3)cc12.[177Lu+3] [[^177Lu]Lu-DO3A.Glu.(FAPI)2] | 2.04E-02
N#C[C@@H]1CC(F)(F)CN1C(=O)CNC(=O)c1ccnc2ccc(OCCCCNC(=O)CC[C@H](NC(=O)CCC(C(=O)O)N3CCN(CC(=O)[O-])CCN(CC(=O)[O-])CCN(CC(=O)[O-])CC3)C(=O)NCCCCOc3ccc4nccc(C(=O)NCC(=O)N5CC(F)(F)C[C@H]5C#N)c4c3)cc12.[161Tb+3] (stereo partly drawn) [[^161Tb]Tb-DOTAGA.Glu.(FAPI)2] | 5.00E-02

Hey, just so you know, these numbers are from paper PMC12860872.
